Biological target: HCoV-HKU1 Mpro (Human coronavirus HKU1, UniProt P0C6X2)
Sequence (P0C6X2 3335-3637 limits assumed): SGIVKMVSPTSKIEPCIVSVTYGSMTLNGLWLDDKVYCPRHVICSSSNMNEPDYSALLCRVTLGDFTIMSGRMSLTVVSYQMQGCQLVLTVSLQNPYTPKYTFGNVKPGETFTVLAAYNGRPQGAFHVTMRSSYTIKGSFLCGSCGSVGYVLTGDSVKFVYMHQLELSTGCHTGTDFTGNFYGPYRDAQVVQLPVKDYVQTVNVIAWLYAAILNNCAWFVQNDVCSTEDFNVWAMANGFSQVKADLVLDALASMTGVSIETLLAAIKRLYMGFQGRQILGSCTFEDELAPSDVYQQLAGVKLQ
Test: HCoV-HKU1 Mpro enzymatic inhibition assay (fluorescence)
Type: biochemical
Details: read-out: Mpro_HKU1 mean IC50; mean; 12.5 nM protein, 12.5 μM substrate; 30 min pre-incubation, 60 min at 30° C.
pIC50: −log10 of the molar value.

{"sample-smiles": "CC1(C)[C@@H]2[C@@H](C(=O)N[C@H](C=O)C[C@@H]3CCNC3=O)N(C(=O)CC3CCCCC3)C[C@@H]21", "pIC50": 7.73}

---

Target: HCoV-229E Mpro (Human coronavirus 229E)
Sequence (P0C6X1 2966-3267 limits assumed): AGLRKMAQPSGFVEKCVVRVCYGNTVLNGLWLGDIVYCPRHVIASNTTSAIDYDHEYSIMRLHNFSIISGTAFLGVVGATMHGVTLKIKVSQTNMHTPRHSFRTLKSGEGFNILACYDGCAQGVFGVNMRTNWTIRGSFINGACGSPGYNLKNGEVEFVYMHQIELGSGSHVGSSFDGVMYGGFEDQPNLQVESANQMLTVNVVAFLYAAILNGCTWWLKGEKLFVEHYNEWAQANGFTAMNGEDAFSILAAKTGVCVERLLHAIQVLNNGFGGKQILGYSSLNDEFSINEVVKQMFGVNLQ
Assay: HCoV-229E Mpro enzymatic inhibition assay (fluorescence)
Format: biochemical
Details: read-out: Mpro_229E mean IC50; mean; 50 nM protein, 12.5 μM substrate; 30 min pre-incubation, 60 min at 30° C.

{"molecule": "CC1(C)[C@@H]2[C@@H](C(=O)N[C@H](C=O)C[C@@H]3CCNC3=O)N(C(=O)CC3CCCCC3)C[C@@H]21 [Compound 54]", "target": "HCoV-229E Mpro (Human coronavirus 229E)", "endpoint-unit": "µM", "IC50": 0.0364}

---

pIC50: recorded values
Molecular target: UniProt:P0C6X1
Experiment: HCoV-229E Mpro enzymatic inhibition assay (fluorescence)
Assay type: biochemical
pIC50: −log10 of the molar value.
outcome-measure: pIC50

{"molecule": "COc1cccc2[nH]c(C(=O)N3C[C@H]4[C@@H]([C@H]3C(=O)N[C@H](C=O)C[C@@H]3CCNC3=O)C4(C)C)cc12", "result-value": 7.42}
{"molecule": "O=C[C@H](C[C@@H]1CCNC1=O)NC(=O)[C@@H]1[C@H]2C[C@H]2CN1C(=O)c1cc2ccccc2[nH]1", "result-value": 6.72}
{"molecule": "CC(C)(C)NC(=O)N[C@H](C(=O)N1C[C@H]2[C@@H]([C@H]1C(=O)N[C@@H](C[C@@H]1CCNC1=O)C(=O)C(N)=O)C2(C)C)C(C)(C)C", "result-value": 6.89}
{"molecule": "CC1(C)[C@@H]2[C@@H](C(=O)N[C@H](C=O)C[C@@H]3CCCNC3=O)N(C(=O)c3cc4cccc(Cl)c4[nH]3)C[C@@H]21", "result-value": 7.47}
{"molecule": "CC1(C)[C@@H]2[C@@H](C(=O)N[C@H](C=O)C[C@@H]3CCNC3=O)N(C(=O)c3cc4c(Cl)cccc4[nH]3)C[C@@H]21", "result-value": 7.41}
{"molecule": "COc1cccc2[nH]c(C(=O)N3CC4(CC4)C[C@H]3C(=O)N[C@H](C=O)C[C@@H]3CCNC3=O)cc12", "result-value": 7.50}
{"molecule": "CC1(C)[C@@H]2[C@@H](C(=O)N[C@H](C=O)C[C@@H]3CCNC3=O)N(C(=O)c3cc4cccc(F)c4[nH]3)C[C@@H]21", "result-value": 7.51}
{"molecule": "CCc1cccc2[nH]c(C(=O)N3C[C@H]4[C@@H]([C@H]3C(=O)N[C@H](C=O)C[C@@H]3CCNC3=O)C4(C)C)cc12", "result-value": 7.40}
{"molecule": "CC1(C)[C@@H]2[C@@H](C(=O)N[C@H](C=O)C[C@@H]3CCNC3=O)N(C(=O)c3cc4cc(F)ccc4[nH]3)C[C@@H]21", "result-value": 7.49}
{"molecule": "CC(C)c1ccc(F)c2[nH]c(C(=O)N3C[C@H]4[C@@H]([C@H]3C(=O)N[C@H](C=O)C[C@@H]3CCNC3=O)C4(C)C)cc12", "result-value": 7.58}
{"molecule": "CC1(C)[C@@H]2[C@@H](C(=O)N[C@H](C=O)C[C@@H]3CCNC3=O)N(C(=O)CC3CCCCC3(F)F)C[C@@H]21 (some centres unmarked)", "result-value": 7.27}
{"molecule": "CC1(C)[C@@H]2[C@@H](C(=O)N[C@H](C=O)C[C@@H]3CCNC3=O)N(C(=O)c3cc4ncccc4[nH]3)C[C@@H]21", "result-value": 7.33}
{"molecule": "CC(C)(C)CCC(=O)N1C[C@H]2[C@@H]([C@H]1C(=O)N[C@H](C=O)C[C@@H]1CCNC1=O)C2(C)C", "result-value": 7.20}
{"molecule": "COc1ccc2cc(C(=O)N3C[C@H]4[C@@H]([C@H]3C(=O)N[C@H](C=O)C[C@@H]3CCNC3=O)C4(C)C)[nH]c2c1", "result-value": 7.37}
{"molecule": "CC1(C)[C@@H]2[C@@H](C(=O)N[C@H](C=O)C[C@@H]3CCNC3=O)N(C(=O)c3cc4cc(Cl)ccc4[nH]3)C[C@@H]21", "result-value": 7.35}
{"molecule": "O=C[C@H](C[C@@H]1CCNC1=O)NC(=O)[C@@H]1C[C@@H]2CCC[C@@H]2N1C(=O)c1cc2ccccc2[nH]1", "result-value": 7.42}
{"molecule": "O=C[C@H](C[C@@H]1CCNC1=O)NC(=O)[C@@H]1C[C@@H](F)CN1C(=O)c1cc2ccccc2[nH]1", "result-value": 7.24}
{"molecule": "CC1(C)[C@@H]2[C@@H](C(=O)N[C@H](C=O)C[C@@H]3CCNC3=O)N(C(=O)c3cc4c(F)ccc(F)c4[nH]3)C[C@@H]21", "result-value": 7.32}
{"molecule": "Cc1ccc2cc(C(=O)N3C[C@H]4[C@@H]([C@H]3C(=O)N[C@H](C=O)C[C@@H]3CCNC3=O)C4(C)C)[nH]c2c1", "result-value": 7.52}
{"molecule": "CC1(C)C[C@@H](C(=O)N[C@H](C=O)C[C@@H]2CCNC2=O)N(C(=O)c2cc3cccc(C#N)c3[nH]2)C1", "result-value": 7.55}
{"molecule": "CC1(C)[C@@H]2[C@@H](C(=O)N[C@H](C=O)C[C@@H]3CCNC3=O)N(C(=O)c3cc4sccc4[nH]3)C[C@@H]21", "result-value": 7.61}
{"molecule": "CC1(C)[C@@H]2[C@@H](C(=O)N[C@H](C=O)C[C@@H]3CCNC3=O)N(C(=O)c3cc4c(F)cccc4[nH]3)C[C@@H]21", "result-value": 7.40}
{"molecule": "O=C[C@H](C[C@@H]1CCNC1=O)NC(=O)[C@@H]1C[C@@H]2C[C@@H]2N1C(=O)c1cc2ccccc2[nH]1", "result-value": 6.94}
